I'd be grateful if you could share measured Particle size (nm) for these entries.
test: Particle size and PDI of lipid nanoparticles by dynamic light scattering; format: physicochemical; conditions: lipid nanoparticle with the cationic lipid, cholesterol, DSPC, DMG-PEG2000 (50/38.5/10/1.5 mol%), luciferase mRNA, N/P 6
Numbers only, in nm.

Previously resolved entries follow.
QUERY: # return recorded Particle size (nm) for entry CCCCC#CCCCCOC(=O)C(C)(C)CCCCCC(CCCCCC(C)(C)C(=O)OCCCCC#CCCCC)OC(=O)CCCN(C)C [Compound 25]
RESULT: 236.90

QUERY: Quickly give me recorded Particle size (nm) for CCCCCCCCCCOC(=O)C(C)(C)CCCCCC(CCCCCC(C)(C)C(=O)OCCCCCCCCCC)OC(=O)CCCN(C)C [Compound 18]
RESULT: 161.29

QUERY: Give recorded Particle size (nm). CCCCCCCCOC(=O)C(C)(C)CCCCCC(CCCCCC(C)(C)C(=O)OCCCCCCCC)OC(=O)C1CCN(C)CC1 [Compound 100]
RESULT: 118.19

QUERY: Give the measured Particle size (nm) for CCCCC/C=C\C/C=C\CCCCCCCCC(CCCCCCCC/C=C\C/C=C\CCCCC)OC(=O)CCCN(C)C [DLin-MC3-DMA, reference compound]
RESULT: 96.83

QUERY: Indicate the recorded Particle size (nm) value for this compound: CCCCCCCCCOC(=O)CCCCCCC(CCCCCCC(=O)OCCCCCCCCC)OC(=O)CCCN(C)C [Compound D1, reference compound]
RESULT: 131.2

QUERY: Tell me its Particle size (nm) given CCCCCCCCCOC(=O)CC(C)(C)CCCCC(CCCCC(C)(C)CC(=O)OCCCCCCCCC)OC(=O)CCCN(C)C [Compound 97] as the entry.
RESULT: 157.00

Kindly give each listed record's Particle size (nm).
1. CCCCCCCCCOC(=O)CCCCCCC(CCCCCCC(=O)OCC(CCCCC)CCCCCCC)OC(=O)CCCN(C)C (centres unmarked) [Compound D2, reference compound]
2. CCCCCCCCCCSC(=O)C(C)(C)CCCCCC(CCCCCC(C)(C)C(=O)SCCCCCCCCCC)OC(=O)C1CCN(C)CC1 [Compound 104]

RESULT:
[245.33, 71.14]

----------
assay: Particle size and PDI of lipid nanoparticles by dynamic light scattering; type: physicochemical; details: lipid nanoparticle with the cationic lipid, cholesterol, DSPC, DMG-PEG2000 (50/38.5/10/1.5 mol%), luciferase mRNA, N/P 6
ENDPOINT LABEL: Particle size dispersity (PDI)
Give bare numbers.

QUERY: State, in one line, measured Particle size dispersity (PDI) of `CCCCCCCCCSC(=O)C(C)(C)CCCCCC(CCCCCC(C)(C)C(=O)SCCCCCCCCC)OC(=O)CC1CCN(C)CC1`
RESULT: 0.05

QUERY: Recall and state the measured Particle size dispersity (PDI) for `CCCCCCC/C=C\COC(=O)C(C)(C)CCCCCC(CCCCCC(C)(C)C(=O)OC/C=C\CCCCCCC)OC(=O)CCCN(C)C` .
RESULT: 0.05

QUERY: Indicate the recorded Particle size dispersity (PDI) value for this molecule: `CC(C)CCCCCCCOC(=O)CCC(C)(C)CCCC(CCCC(C)(C)CCC(=O)OCCCCCCCC(C)C)OC(=O)CCCN(C)C`
RESULT: 0.05

# return Particle size dispersity (PDI) for each item in the list
1. CCCCCCCCOC(=O)C(C)(C)CCCCCC(CCCCCC(C)(C)C(=O)OCCCCCCCC)OC(=O)C1CCN(C)CC1
2. CCCCCCCCCOC(=O)C(C)(C)CCCCCCC(CCCCCCC(C)(C)C(=O)OCC(CCCCC)CCCCCCC)OC(=O)CCCN(C)C (centres unmarked)

RESULT:
1: 0.07; 2: 0.07

Please give Particle size dispersity (PDI), item by item, for the list that follows.
1. CCCCCCCCCNC(=O)C(C)(C)CCCCCC(CCCCCC(C)(C)C(=O)NCCCCCCCCC)OC(=O)CCN(C)C
2. CCCCCCCCCOC(=O)C(C)(C)CCCCC(CCCCC(C)(C)C(=O)OCC(CCCCC)CCCCCCC)OC(=O)CCCN(C)C (centres unmarked)
3. CCCCCCCCC(CCCCCC)OC(=O)C(C)(C)CCCCCC(CCCCCC(C)(C)C(=O)OC(CCCCCC)CCCCCCCC)OC(=O)CCN(C)C (centres unmarked)
4. CCCCCCCC#CCOC(=O)C(C)(C)CCCCCC(CCCCCC(C)(C)C(=O)OCC#CCCCCCCC)OC(=O)CCCN(C)C
5. CCCCCCCCCSC(=O)C(C)(C)CCCCCC(CCCCCC(C)(C)C(=O)SCCCCCCCCC)OC(=O)C1CCN(C)CC1
6. CCCCCCCCCCOC(=O)C(C)(C)CCCCCC(CCCCCC(C)(C)C(=O)OCCCCCCCCCC)OC(=O)CCCN(C)C

RESULT:
1. 0.07
2. 0.07
3. 0.05
4. 0.07
5. 0.05
6. 0.05

These data points were gathered from patent US12162819B2.
